molecular target: human P2Y12 receptor (Homo sapiens, UniProt Q9H244); test: P2Y12 receptor binding assay; settings: CHO cells with recombinant expression of the human P2Y12 receptor; tritium-labeled 2-methyl-S-ADP; RT, 2 hours
Sequence (Q9H244 whole entry): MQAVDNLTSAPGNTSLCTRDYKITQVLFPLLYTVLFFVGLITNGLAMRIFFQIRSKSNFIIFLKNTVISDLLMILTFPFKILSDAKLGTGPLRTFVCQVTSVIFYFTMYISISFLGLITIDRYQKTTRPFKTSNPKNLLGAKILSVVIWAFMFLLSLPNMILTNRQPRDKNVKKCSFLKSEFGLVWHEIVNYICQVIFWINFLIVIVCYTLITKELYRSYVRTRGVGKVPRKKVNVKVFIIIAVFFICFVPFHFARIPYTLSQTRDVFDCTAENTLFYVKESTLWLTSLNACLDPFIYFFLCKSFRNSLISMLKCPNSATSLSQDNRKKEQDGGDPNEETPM
Please go through the items and note down their IC50.
Give the value, in units of nM, as a plain number.

Per the record, CC(C)[C@H](NC(=O)c1cc(N2C[C@@H]3C(C(=O)O)[C@@H]3C2)nc(-c2ccccc2)n1)C(=O)N1CCN(C(=O)OCc2ccccc2)[C@H](C)C1 (stereo partly drawn) [Example 32] has IC50 of 477

Per the record, CCCCOC(=O)N1CCN(C(=O)C(NC(=O)c2cc(N3CC4C(C3)C4C(=O)O)nc(-c3ccccc3)n2)C(C)O)CC1 (stereo not drawn) [Example 42] has IC50 of 50

Per the record, CCCCOC(=O)N1CCN(C(=O)[C@@H](NC(=O)c2cc(N3C[C@@H]4[C@H](C3)[C@@H]4C(=O)O)nc(-c3ccc(F)cc3)n2)C(C)C)CC1 [Example 28] has IC50 of 7

###

target: human P2Y12 receptor (Homo sapiens, UniProt Q9H244); test: P2Y12 receptor binding assay; details: CHO cells with recombinant expression of the human P2Y12 receptor; tritium-labeled 2-methyl-S-ADP; RT, 2 hours
observable: IC50 (nM)
Give the value, in units of nM, as a plain number.

Per the record, CCCCOC(=O)N1CCN(C(=O)[C@@H](NC(=O)c2cc(N3C[C@@H]4[C@H](CC(=O)O)[C@@H]4C3)nc(-c3ccccc3)n2)C(C)C)CC1 has IC50 of 13

Per the record, CCCCOC(=O)N1CCN(C(=O)[C@@H](NC(=O)c2cc(N3C[C@@H]4[C@H](C3)[C@@H]4C(=O)O)nc(-c3ccccc3)n2)C(C)(C)C)CC1 has IC50 of 330

Per the record, CCCCOC(=O)N1CCN(C(=O)[C@@H](NC(=O)c2cc(N3C[C@@H]4[C@H](C3)[C@H]4c3nnn[nH]3)nc(-c3ccccc3)n2)C(C)C)CC1 has IC50 of 12

Per the record, CCCCOC(=O)N1CCN(C(=O)[C@H](CCC(=O)O)NC(=O)c2cc(N3C[C@@H]4[C@@H](N)[C@@H]4C3)nc(-c3ccccc3)n2)CC1 has IC50 of 7.5

Per the record, CCCCOC(=O)N1CCN(C(=O)[C@H](C)NC(=O)c2cc(N3C[C@@H]4[C@H](C3)[C@H]4C(=O)O)nc(-c3ccccc3)n2)CC1 has IC50 of 229

Per the record, CCCCOC(=O)N1CCN(C(=O)[C@H](CCC(=O)O)NC(=O)c2cc(N3C[C@@H]4[C@H](C3)[C@H]4C(=O)O)nc(-c3ccccc3)n2)CC1 has IC50 of 10

###

Please go through the items and note down their log10 IC50.
target: human P2Y12 receptor (Homo sapiens, UniProt Q9H244); test: P2Y12 receptor binding assay; conditions: CHO cells with recombinant expression of the human P2Y12 receptor; tritium-labeled 2-methyl-S-ADP; RT, 2 hours
Heads up: the numbers are on a log10 scale; they represent IC50 in nM.

Entry CCCCOC(=O)N1CCN(C(=O)[C@@H](NC(=O)c2cc(N3C[C@@H]4[C@H](C3)[C@@H]4C(=O)O)nc(-c3ccccc3)n2)C(C)C)CC1 ; assay system human P2Y12 receptor (Homo sapiens, UniProt Q9H244); log10 IC50 recorded at 1.15

Entry CCCCOC(=O)N1CCN(C(=O)[C@H](CC)NC(=O)c2cc(N3C[C@@H]4[C@H](C3)[C@@H]4C(=O)O)nc(-c3ccccc3)n2)CC1 ; assay system human P2Y12 receptor (Homo sapiens, UniProt Q9H244); log10 IC50 recorded at 1.98

Entry CCCCOC(=O)N1CCN(C(=O)[C@H](C)NC(=O)c2cc(N3C[C@@H]4[C@H](C3)[C@@H]4C(=O)O)nc(-c3ccccc3)n2)CC1 ; assay system human P2Y12 receptor (Homo sapiens, UniProt Q9H244); log10 IC50 recorded at 1.71

Entry CCCCOC(=O)N1CCN(C(=O)[C@H](Cc2ccccc2)NC(=O)c2cc(N3C[C@@H]4[C@H](C3)[C@@H]4C(=O)O)nc(-c3ccccc3)n2)CC1 ; assay system human P2Y12 receptor (Homo sapiens, UniProt Q9H244); log10 IC50 recorded at 2.41

Entry CCCCOC(=O)N1CCN(C(=O)[C@H](CCC)NC(=O)c2cc(N3C[C@@H]4[C@H](C3)[C@@H]4C(=O)O)nc(-c3ccccc3)n2)CC1 ; assay system human P2Y12 receptor (Homo sapiens, UniProt Q9H244); log10 IC50 recorded at 2.09

Entry CCCCOC(=O)N1CCN(C(=O)[C@@H](NC(=O)c2cc(N3C[C@@H]4[C@H](C3)[C@H]4C(=O)O)nc(-c3ccccc3)n2)C(C)(C)C)CC1 ; assay system human P2Y12 receptor (Homo sapiens, UniProt Q9H244); log10 IC50 recorded at 2.96
